Some molecules, each annotated with its measured pIC50.
biological target: full length mouse TREX1 (Mus musculus); construct: N-terminally His-Tev tagged full length mouse TREX1; made in house; host or cells: E. coli; assay: mTREX1 Biochemical Assay (fluorescence, dsDNA substrate degradation); settings: biochemical, read-out: mTREX1 IC50
Sequence (Q91XB0 whole entry): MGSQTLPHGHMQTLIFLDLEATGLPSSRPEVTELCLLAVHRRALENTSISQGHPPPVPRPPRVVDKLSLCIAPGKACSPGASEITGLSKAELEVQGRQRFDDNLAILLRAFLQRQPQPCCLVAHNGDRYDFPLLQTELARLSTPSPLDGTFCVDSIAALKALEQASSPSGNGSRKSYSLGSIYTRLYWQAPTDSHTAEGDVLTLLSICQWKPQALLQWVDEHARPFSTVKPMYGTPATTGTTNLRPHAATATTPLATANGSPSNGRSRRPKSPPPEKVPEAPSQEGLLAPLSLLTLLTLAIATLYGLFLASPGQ
pIC50: −log10 of the molar value.

>  <molecule>
Cc1cc(C)n(C(c2ccccc2C#N)C(C)c2nc(C(=O)Nc3cnoc3)c(O)c(=O)n2C)n1 (single isomer, unassigned) [Example 137 D1E2]

>  <pIC50>
< 8.00

$$$$
>  <molecule>
CC(c1nc(C(=O)Nc2cnoc2)c(O)c(=O)n1C)C(c1cnn(C)c1)c1ccc(C(=O)N(C)C)cc1C#N (single isomer, unassigned) [Example 11 D2E1]

>  <pIC50>
< 8.00

$$$$

Okay, next one:
Prompt line: What measured pIC50 goes with CC(c1nc(C(=O)Nc2cnoc2)c(O)c(=O)n1C)C(c1cnn(C)c1)c1c(C#N)cccc1C#N (single isomer, unassigned) [Example 19 D1E1] ?
Response line: < 8.00

====

Some molecules, each annotated with its measured pIC50.
Target: full length human TREX1 (Homo sapiens)
Construct: N-terminally His-Tev tagged full length human TREX1; made in house; host or cells: E. coli
Sequence (Q9NSU2 whole entry): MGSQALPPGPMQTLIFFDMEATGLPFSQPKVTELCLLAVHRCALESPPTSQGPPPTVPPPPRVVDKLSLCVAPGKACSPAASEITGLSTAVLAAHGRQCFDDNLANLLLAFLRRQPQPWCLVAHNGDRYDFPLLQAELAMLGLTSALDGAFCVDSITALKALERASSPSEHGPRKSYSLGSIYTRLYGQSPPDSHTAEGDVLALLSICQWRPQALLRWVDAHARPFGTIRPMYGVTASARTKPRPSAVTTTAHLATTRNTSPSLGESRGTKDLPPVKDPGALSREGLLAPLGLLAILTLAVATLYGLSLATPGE
Assay: hTREX1 Biochemical Assay (fluorescence, dsDNA substrate degradation)
Conditions: hTREX1 IC50, biochemical
Protocol: Degradation of the dsDNA liberates free fluorophore to produce a fluorescent signal. Specifically, 7.5 μL of N-terminally His-Tev tagged full length human TREX1 (expressed in E. coli and purified in house) in reaction buffer (50 mM Tris, 150 mM NaCl, 2 mM DTT, 0.1 mg/mL BSA, 0.01% (w/v) Tween-20, 5 mM MgCl2, pH 7.4) was added to a 384-well Black ProxiPlate Plus (PerkinElmer) which already contained compound (150 nL) at varying concentrations as a 10 point dose-response in DMSO. […]
pIC50: −log10 of the molar value.

>  <molecule>
Cc1ccnn1C(c1ccccc1Cl)C(C)c1nc(C(=O)Nc2cnoc2)c(O)c(=O)n1C (single isomer, unassigned) [Example 54 D1E1]

>  <target_or_test_system>
full length human TREX1 (Homo sapiens)

>  <pIC50>
8.00 to 9.00

$$$$

Okay, next one:
Prompt line: Lookup: pIC50 / full length human TREX1 (Homo sapiens) / Cc1ccnn1C(c1ccccc1Cl)C(C)c1nc(C(=O)Nc2cnoc2)c(O)c(=O)n1C (single isomer, unassigned) [Example 54 D1E2]
Response line: < 8.00

====

biological target: full length human TREX1 (Homo sapiens); construct: N-terminally His-Tev tagged full length human TREX1; made in house; host or cells: E. coli; test: TREX1 Kinetics Assays (TR-FRET association and dissociation, global fit with Kintek Explorer); format: binding; conditions: hTREX1, TR-FRET kinetics
quantity: residence time (min)

Some molecules with recorded residence time:
>  <molecule>
CC(c1nc(C(=O)Nc2cnoc2)c(O)c(=O)n1C)C(c1cnn(C)c1)c1ccccc1Cl (single isomer, unassigned)

>  <target_or_test_system>
full length human TREX1 (Homo sapiens)

>  <unit_abbreviation>
min

>  <recorded_measurement>
215

$$$$
>  <molecule>
Cc1cncc(C(c2ccccc2C#N)C(C)c2nc(C(=O)Nc3cnoc3)c(O)c(=O)n2C)n1 (single isomer, unassigned)

>  <target_or_test_system>
full length human TREX1 (Homo sapiens)

>  <unit_abbreviation>
min

>  <recorded_measurement>
483

$$$$
>  <molecule>
CCn1cc(C(c2cc(F)ccc2C#N)C(C)c2nc(C(=O)Nc3cnoc3)c(O)c(=O)n2C)cn1 (single isomer, unassigned)

>  <target_or_test_system>
full length human TREX1 (Homo sapiens)

>  <unit_abbreviation>
min

>  <recorded_measurement>
353

$$$$
>  <molecule>
Cc1nc(C)c(C(c2ccccc2C#N)C(C)c2nc(C(=O)Nc3cnoc3)c(O)c(=O)n2C)nc1C (single isomer, unassigned)

>  <target_or_test_system>
full length human TREX1 (Homo sapiens)

>  <unit_abbreviation>
min

>  <recorded_measurement>
1450

$$$$
>  <molecule>
CC(c1nc(C(=O)Nc2cnoc2)c(O)c(=O)n1C)C(c1cnn(C)c1)c1cc(Cl)ccc1C#N (single isomer, unassigned)

>  <target_or_test_system>
full length human TREX1 (Homo sapiens)

>  <unit_abbreviation>
min

>  <recorded_measurement>
269

$$$$
>  <molecule>
C[C@H](c1nc(C(=O)Nc2cnoc2)c(O)c(=O)n1C)[C@@H](c1cc(F)ccc1C#N)c1cn(C)nc1C#N

>  <target_or_test_system>
full length human TREX1 (Homo sapiens)

>  <unit_abbreviation>
min

>  <recorded_measurement>
515

$$$$

P: CC(c1nc(C(=O)Nc2cnoc2)c(O)c(=O)n1C)C(c1ccccc1C#N)c1cn(C)nc1F (single isomer, unassigned)
Q: CC(c1nc(C(=O)Nc2cnoc2)c(O)c(=O)n1C)C(c1cnn(C(C)C)c1)c1ccccc1C#N (single isomer, unassigned)
Prompt line: // pick larger residence time from pair: P vs Q Please respond with the label that marks your chosen entry.
Response line: P
(P: 1820 min, Q: 662 min)

A: Cc1cnc(C(c2cc(F)ccc2C#N)C(C)c2nc(C(=O)Nc3cnoc3)c(O)c(=O)n2C)cn1 (single isomer, unassigned)
B: Cc1cnc(C(c2ccccc2C#N)C(C)c2nc(C(=O)Nc3cnoc3)c(O)c(=O)n2C)cn1 (single isomer, unassigned)
Prompt line: // pick larger residence time from pair: A vs B Please respond with the label that marks your chosen entry.
Response line: A
(A: 515 min, B: 346 min)
